Header: log10(IC50) / Gonadotropin-releasing hormone receptor (Homo sapiens, UniProt P30968) / multiple publications
Form field - Quantity: IC50; Unit: nM; Scale: log10

molecule	reported_endpoint	test_result
CCC(CC)(C(=O)N1C2CCC1CC2)c1ccc2[nH]c(-c3cc(C)cc(C)c3)c(CCNCCCCc3ccncc3)c2c1	log10(IC50)	0.23
COc1ccc(C#N)cc1CSc1nc2cc(NC(=O)C3CC3)ccc2n1C(C)C	log10(IC50)	2.76
CCCn1c(SCc2cc([N+](=O)[O-])ccc2OC)nc2cc(NC(=O)NC(C)(C)C)cc(C(=O)NCCCN(C)Cc3ccccc3)c21	log10(IC50)	2.28
COc1ccc([N+](=O)[O-])cc1CSc1nc2cc(NC(=O)NC(C)(C)C)ccc2n1C1CC1	log10(IC50)	1.90
COCCn1c(SCc2cc([N+](=O)[O-])ccc2OC)nc2cc(NC(=O)NC(C)(C)C)ccc21	log10(IC50)	1.76
CCCn1c(SCc2cc([N+](=O)[O-])ccc2OC)nc2cc(NC(=O)NC(C)(C)C)cc(C(=O)NC(C)(C)C)c21	log10(IC50)	2.61

Count: 3. Required value per item: log10(IC50).
1. CC(C)(C)NC(=O)NCCc1nc2cc(S(=O)(=O)NCc3ccc(Cl)cc3Cl)ccc2n1Cc1ccccc1
2. Cc1cc(C)cc(-c2[nH]c3ccc(C(C)(C)C(=O)N4C5CCC4CC5)cc3c2CCN(CCCCc2ccncc2)C(C)C)c1
3. CCOc1nc2cc(S(=O)(=O)NCc3ccc(F)cc3)ccc2n1Cc1ccccc1

Output:
[1.34, 0.49, 2.48]

Count: 2. Required value per item: log10(IC50).
1. CCCn1c(SCc2cc([N+](=O)[O-])ccc2OC)nc2cc(NC(=O)NC(C)(C)C)cc(C(=O)N3CCCC3)c21
2. CC(C)NC(=O)NCCc1nc2cc(S(=O)(=O)NCc3ccc(F)cc3)ccc2n1Cc1ccccc1

Output:
2.79
2.18

* * *

Header: IC50 / Gonadotropin-releasing hormone receptor (Homo sapiens) / multiple publications
Give bare numbers, in nM.

sample_smiles	IC50 / nM
CCCn1c(SCc2cc([N+](=O)[O-])ccc2OC)nc2cc(NC(=O)NC(C)(C)C)cc(C(=O)NCCc3ccncc3)c21	130
CC(C)C[C@H](NC(=O)[C@@H](Cc1ccc(O)cc1)NC(=O)[C@H](Cc1c[nH]cn1)NC(=O)[C@H](CO)NC(=O)[C@H](Cc1c[nH]c2ccccc12)NC(=O)[C@H](Cc1c[nH]cn1)NC(=O)[C@@H]1CCC(=O)N1)C(=O)N[C@@H](CCCN=C(N)N)C(=O)N1CCC[C@H]1C(=O)NCC(N)=O	8.1

Task: Consider the compound `CCN(CCCCc1ccncc1)CCc1c(-c2cc(C)cc(C)c2)[nH]c2ccc(C(C)(C)C(=O)N3C4CCC3CC4)cc12` and give its measured IC50.
Output: 2.2

* * *

Header: IC50 / Gonadotropin-releasing hormone receptor (Homo sapiens, UniProt P30968) / multiple publications
Could you please classify the records by IC50 using these ranges: class 1 = under 20 nM, class 2 = from 20 nM up to 200 nM, class 3 = 200 nM and over

Some solved cases for reference:
molecule	category
CCCCCn1c(SCc2cc([N+](=O)[O-])ccc2OC)nc2cc(NC(=O)NC(C)(C)C)ccc21	class 3
COc1ccc([N+](=O)[O-])cc1CSc1nc2cc(NC(=O)NC(C)(C)C)ccc2n1Cc1ccncc1	class 2
CC(C)(C)NC(=O)NCCc1nc2cc(S(=O)(=O)NCc3ccc(Cl)cc3)ccc2n1Cc1ccccc1	class 1
CCSc1nc2cc(S(=O)(=O)NCCN3CCOCC3)ccc2n1Cc1ccccc1	class 3
CC(C)(C)NC(=O)CCCc1nc2cc(S(=O)(=O)NCc3ccc(F)cc3)ccc2n1Cc1ccccc1	class 3
COc1c(C)cc(-c2[nH]c3ccc(C(C)(C)C(=O)N(CC(C)C)CC(C)C)cc3c2[C@H](C)CNCCc2ccccc2)cc1C	class 1
Cc1cc(C)cc(-c2c(OCC[C@@H]3CCC[C@H](C)N3)c3cc(C(=O)Nc4ccncn4)c(Cl)cc3[nH]c2=O)c1	class 1
Cc1cc(C)cc(-c2[nH]c3ccc(C(C)(C)C(=O)N4CCOCC4)cc3c2CCNCCCCc2ccncc2)c1	class 1
Cc1cc(C)cc(-c2[nH]c3ccc(C(C)(C)C(=O)N(CC(C)C)CC(C)C)cc3c2CCNCCCCc2ccncc2)c1	class 1
CCCn1c(SCc2cc([N+](=O)[O-])ccc2OC)nc2cc(NC(=O)NC(C)(C)C)cc(C(=O)NCc3ccncc3)c21	class 2

Task: Please indicate the class for `Cc1cc(C)cc(-c2[nH]c3ccc(C4(C(=O)N5C6CCC5CC6)CCC4)cc3c2CCNCCCCc2ccncc2)c1` based on its IC50.
Output: class 1

Task: Subsequent entry: `COc1ccc([N+](=O)[O-])cc1CSc1nc2cc(NC(=O)C3CCC3)ccc2n1C(C)C`
Output: class 3

Task: Subsequent entry: `CSc1nc2cc(S(=O)(=O)NCc3ccc(F)cc3)ccc2n1Cc1ccccc1`
Output: class 3

Task: Subsequent entry: `CCSc1nc2cc(S(=O)(=O)NCc3ccc([N+](=O)[O-])cc3)ccc2n1Cc1ccccc1`
Output: class 3

Task: Subsequent entry: `CCCn1c(SCc2cc([N+](=O)[O-])ccc2OC)nc2cc(NC(=O)NC(C)(C)C)cc(C(=O)O)c21`
Output: class 2

Task: Subsequent entry: Cc1cc(C)cc(-c2[nH]c3ccc(C(C)(C)C(=O)N4C(C)CCC4C)cc3c2CCNCCCCc2ccncc2)c1 (centres undefined)
Output: class 1

Task: Subsequent entry: `CC(C)(C)CNC(=O)NCCc1nc2cc(S(=O)(=O)NCc3ccc(F)cc3)ccc2n1Cc1ccccc1`
Output: class 2

* * *

Header: IC50 / Gonadotropin-releasing hormone receptor (Homo sapiens) / multiple publications

// below: answered compounds
sample_smiles	test_result
CC(C)n1c(SCc2ccccc2Cl)nc2cc(NC(=O)C3CC3)ccc21	6.3 µM
COc1ccc([N+](=O)[O-])cc1CSc1nc2cc(NC(=O)NC3CC3)ccc2n1C(C)C	1.9 µM
NCCc1nc2cc(S(=O)(=O)NCc3ccc(F)cc3)ccc2n1Cc1ccccc1	> 10 µM
Cc1cc(-c2c(OCC[C@@H]3CCC[C@H](C)N3)c3cc(C(=O)Nc4ccncn4)c(Cl)cc3[nH]c2=O)cc(C)c1C	0.0006 µM

Task: Consider the compound `Cc1cc(C)cc(-c2[nH]c3ccc(C(C)(C)C(=O)N4C5CCC4CC5)cc3c2CCNCCCCc2ccncc2)c1` and give its measured IC50.
Output: 0.0014 µM

* * *

Header: pIC50 / Gonadotropin-releasing hormone receptor (Homo sapiens) / multiple publications
Answers are plain numbers, as −log10 of the molar value.

// below: answered molecules
molecule	test_result
COc1ccc([N+](=O)[O-])cc1CSc1nc2cc(NC(=O)NC(C)(C)C)ccc2n1-c1ccccc1	6.46
Cc1cc(C)cc(-c2[nH]c3ccc(C(C)(C)C(=O)N4C5CCC4CC5)cc3c2CCN(CCCCc2ccncc2)CC(C)C)c1	8.09
COc1ccc([N+](=O)[O-])cc1CSc1nc2cc(NC(=O)C(C)C)ccc2n1C(C)C	6.60
CCc1cc(CN2CCN(c3cccc4[nH]c(-c5ccc(C(C)(C)C)cc5)nc34)CC2)nn1C	8.15
O=C(NCCc1nc2cc(S(=O)(=O)NCc3ccc(F)cc3)ccc2n1Cc1ccccc1)Nc1ccccc1F	7.18
CCOC(=O)CSc1nc2cc(S(=O)(=O)NCc3ccc(F)cc3)ccc2n1Cc1ccccc1	6.31
Cc1cc(-c2c(O)nc3cc(Cl)c(C(=O)Nc4ncccn4)cc3c2OCC[C@@H]2CCN2)cc(C)c1C	9.36
COc1ccc([N+](=O)[O-])cc1CSc1nc2cc(NC(=O)C(C)(C)C)ccc2n1C(C)C	6.74

Count: 8. Required value per item: pIC50.
1. CCOc1nc2cc(S(=O)(=O)NCc3ccc(F)cc3)ccc2n1Cc1cccc(Cl)c1
2. CC(C)(C)NC(=O)NCCc1nc2cc(S(=O)(=O)NCc3ccccc3)ccc2n1Cc1ccccc1
3. O=S(=O)(NCc1ccc(F)cc1)c1ccc2c(c1)nc(SCCc1ccccn1)n2Cc1ccccc1
4. Cc1cc(C)cc(-c2[nH]c3ccc(C(C)(C)C(=O)N4C5CCC4CC5)cc3c2CCN(C)CCCCc2ccncc2)c1
5. CCC1CCC[C@@H](CCOc2c(-c3cc(C)cc(C)c3)c(=O)[nH]c3cc(Cl)c(C(=O)Nc4ccncn4)cc23)N1 (stereo partly drawn)
6. Cc1ccccc1CSc1nc2cc(NC(=O)C3CC3)ccc2n1C(C)C
7. Cc1cccc(CSc2nc3cc(NC(=O)C4CC4)ccc3n2C(C)C)c1
8. O=S(=O)(NCc1ccc(F)cc1)c1ccc2c(c1)nc(OCCN1CCOCC1)n2Cc1ccccc1

Output:
6.06
6.31
6.64
8.82
8.24
5.49
5.19
5.24

Count: 6. Required value per item: pIC50.
1. CCCn1c(SCc2cc([N+](=O)[O-])ccc2OC)nc2cc(NC(=O)NC(C)(C)C)cc(C(=O)NCCCN(C)C)c21
2. O=C(NCCc1nc2cc(S(=O)(=O)NCc3ccc(F)cc3)ccc2n1Cc1ccccc1)Nc1ccccc1Cl
3. CC(C)(C)NC(=O)NCCCc1nc2cc(S(=O)(=O)NCc3ccc(F)cc3)ccc2n1Cc1ccccc1
4. CC(C)(C)NC(=O)NCCc1nc2cc(S(=O)(=O)NCc3ccc(C(F)(F)F)c(F)c3)ccc2n1Cc1ccccc1
5. Cc1cc(-c2c(OCC[C@@H]3CCCC(C(F)(F)F)N3)c3cc(C(=O)Nc4ccncn4)c(Cl)cc3[nH]c2=O)cc(C)c1C (stereo partly drawn)
6. Cc1cc(C)cc(-c2[nH]c3ccc(C(C)(C)C(=O)N4CCCC4)cc3c2CCNCCCCc2cccnc2)c1

Output:
1. 6.77
2. 7.08
3. 6.74
4. 7.24
5. 8.70
6. 8.30
